Quick reference: pIC50 of the listed items.
Molecular target: ROCK2 (Homo sapiens (Human))
Sequence (O75116 whole entry, species assumed): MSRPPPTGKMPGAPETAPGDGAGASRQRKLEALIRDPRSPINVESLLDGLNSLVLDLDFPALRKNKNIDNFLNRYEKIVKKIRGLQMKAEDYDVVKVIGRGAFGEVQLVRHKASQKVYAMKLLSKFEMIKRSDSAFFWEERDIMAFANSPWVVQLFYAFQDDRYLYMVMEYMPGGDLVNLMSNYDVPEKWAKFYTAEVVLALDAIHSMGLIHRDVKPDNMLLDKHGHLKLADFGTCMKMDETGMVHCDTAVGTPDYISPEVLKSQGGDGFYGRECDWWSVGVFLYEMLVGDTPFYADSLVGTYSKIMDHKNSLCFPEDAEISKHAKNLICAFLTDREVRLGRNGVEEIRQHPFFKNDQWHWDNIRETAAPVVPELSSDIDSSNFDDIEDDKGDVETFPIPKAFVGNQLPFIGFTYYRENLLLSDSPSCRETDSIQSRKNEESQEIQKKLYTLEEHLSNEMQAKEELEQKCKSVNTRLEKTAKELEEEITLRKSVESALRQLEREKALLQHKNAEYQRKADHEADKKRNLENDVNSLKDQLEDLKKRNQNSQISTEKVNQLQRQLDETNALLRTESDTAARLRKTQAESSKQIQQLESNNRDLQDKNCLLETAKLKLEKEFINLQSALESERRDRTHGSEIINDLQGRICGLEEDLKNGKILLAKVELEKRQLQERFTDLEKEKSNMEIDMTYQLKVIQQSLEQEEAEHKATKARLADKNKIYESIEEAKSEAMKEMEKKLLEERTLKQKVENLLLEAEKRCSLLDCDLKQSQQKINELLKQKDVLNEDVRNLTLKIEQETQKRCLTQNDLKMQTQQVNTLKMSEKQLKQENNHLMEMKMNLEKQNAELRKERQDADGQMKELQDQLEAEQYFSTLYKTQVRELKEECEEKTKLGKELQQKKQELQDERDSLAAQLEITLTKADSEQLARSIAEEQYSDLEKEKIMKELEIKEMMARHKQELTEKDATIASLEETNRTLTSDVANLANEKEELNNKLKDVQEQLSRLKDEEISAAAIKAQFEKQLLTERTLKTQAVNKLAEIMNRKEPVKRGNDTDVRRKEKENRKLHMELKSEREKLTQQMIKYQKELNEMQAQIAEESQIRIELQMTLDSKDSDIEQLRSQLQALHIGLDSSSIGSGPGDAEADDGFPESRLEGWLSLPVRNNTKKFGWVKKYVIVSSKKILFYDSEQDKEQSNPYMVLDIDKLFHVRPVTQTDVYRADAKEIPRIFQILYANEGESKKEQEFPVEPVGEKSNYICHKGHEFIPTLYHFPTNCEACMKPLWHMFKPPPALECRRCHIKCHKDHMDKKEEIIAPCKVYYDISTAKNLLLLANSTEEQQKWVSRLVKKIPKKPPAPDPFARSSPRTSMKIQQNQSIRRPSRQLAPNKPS
pIC50: −log10 of the molar value.

Task: Look up and report measured pIC50 for this entry: CCc1cc(-n2nc(C)n(Cc3cc(F)cc(F)c3)c2=O)ccc1-c1cn[nH]c1 [Example 108]
Output: 7.30 to 8.30

Task: Look up and report measured pIC50 for this entry: CCc1cc(-n2nc(C)n(CCc3ccccc3)c2=O)ccc1-c1cn[nH]c1 [Example 110]
Output: 5.70 to 6.60

Task: Look up and report measured pIC50 for this entry: COc1cccc(Cn2cnn(-c3ccc(-c4ccnc5[nH]ccc45)cc3)c2=O)c1 [Example 169]
Output: > 8.30

Task: Look up and report measured pIC50 for this entry: COc1cc(-c2cn[nH]c2)ccc1-n1cnn(CCc2ccccc2)c1=O [Example 14]
Output: 6.60 to 7.30

Task: Look up and report measured pIC50 for this entry: COc1cc(-n2cnn(CCc3ccccc3)c2=O)ccc1-c1cn[nH]c1 [Example 9]
Output: 6.60 to 7.30

Task: Look up and report measured pIC50 for this entry: COc1cccc(Cn2c(C)nn(-c3ccc(-c4cn[nH]c4)cc3)c2=O)c1 [Example 80]
Output: > 8.30

Task: Look up and report measured pIC50 for this entry: COc1cc(-n2c(C)nn(CCc3ccccc3)c2=O)ccc1-c1cn[nH]c1 [Example 66]
Output: 6.60 to 7.30

Task: Look up and report measured pIC50 for this entry: CCc1cc(-n2nc(C)n(C(C)c3ccccc3)c2=O)ccc1-c1cn[nH]c1 (centres unmarked) [Example 109]
Output: 5.70 to 6.60

Task: Look up and report measured pIC50 for this entry: Cc1nn(-c2ccc(-c3cn[nH]c3)cc2)c(=O)n1Cc1ccccc1F [Example 87]
Output: 7.30 to 8.30

Task: Look up and report measured pIC50 for this entry: COc1cc(F)cc(Cn2c(CN3CCCC3)nn(-c3ccc(-c4cn[nH]c4)cc3)c2=O)c1 [Example 150]
Output: 7.30 to 8.30

Task: Look up and report measured pIC50 for this entry: COc1cc(Cn2c(C)nn(-c3ccc(-c4cn[nH]c4)cc3)c2=O)cc(OC)c1 [Example 120]
Output: 5.70 to 6.60

Task: Look up and report measured pIC50 for this entry: COc1cccc(Cn2cnn(-c3ccc(-c4cn[nH]c4)c(OC)c3)c2=O)c1 [Example 24]
Output: > 8.30

Task: Look up and report measured pIC50 for this entry: CCc1cc(-n2ncn(Cc3cccc(C#N)c3)c2=O)ccc1-c1cn[nH]c1 [Example 41]
Output: 5.70 to 6.60

Task: Look up and report measured pIC50 for this entry: COc1cc(-n2nnn(Cc3cccc(F)c3)c2=O)ccc1-c1cn[nH]c1 [Example 180]
Output: 7.30 to 8.30

###

// ROCK2 (Homo sapiens (Human)) pIC50 records
pIC50: −log10 of the molar value.

compound	subject_of_test	pIC50
COc1cc(-n2nc(C)n(Cc3cccc(OC(F)F)c3)c2=O)ccc1-c1cn[nH]c1	ROCK2 (Homo sapiens (Human))	7.30 to 8.30
COc1cc(-n2nnn(Cc3cc(F)ccc3F)c2=O)ccc1-c1cn[nH]c1	ROCK2 (Homo sapiens (Human))	6.60 to 7.30
COc1cc(-c2cn[nH]c2)ccc1-n1c(C)nn(CCc2ccccc2)c1=O	ROCK2 (Homo sapiens (Human))	5.70 to 6.60
COc1cc(-n2nc(C)n(CCc3ccccc3)c2=O)ccc1-c1cn[nH]c1	ROCK2 (Homo sapiens (Human))	7.30 to 8.30

# evaluate next
Task: Param request: pIC50 | system ROCK2 (Homo sapiens (Human)) | item `COc1cccc(Cn2cnn(-c3ccc(-c4ccnc(N)n4)cc3)c2=O)c1`
Output: 7.30 to 8.30
